Molecular target: PRMT5/MEP50 complex (Homo sapiens, UniProt O14744)
Sequence (O14744 whole entry, species assumed): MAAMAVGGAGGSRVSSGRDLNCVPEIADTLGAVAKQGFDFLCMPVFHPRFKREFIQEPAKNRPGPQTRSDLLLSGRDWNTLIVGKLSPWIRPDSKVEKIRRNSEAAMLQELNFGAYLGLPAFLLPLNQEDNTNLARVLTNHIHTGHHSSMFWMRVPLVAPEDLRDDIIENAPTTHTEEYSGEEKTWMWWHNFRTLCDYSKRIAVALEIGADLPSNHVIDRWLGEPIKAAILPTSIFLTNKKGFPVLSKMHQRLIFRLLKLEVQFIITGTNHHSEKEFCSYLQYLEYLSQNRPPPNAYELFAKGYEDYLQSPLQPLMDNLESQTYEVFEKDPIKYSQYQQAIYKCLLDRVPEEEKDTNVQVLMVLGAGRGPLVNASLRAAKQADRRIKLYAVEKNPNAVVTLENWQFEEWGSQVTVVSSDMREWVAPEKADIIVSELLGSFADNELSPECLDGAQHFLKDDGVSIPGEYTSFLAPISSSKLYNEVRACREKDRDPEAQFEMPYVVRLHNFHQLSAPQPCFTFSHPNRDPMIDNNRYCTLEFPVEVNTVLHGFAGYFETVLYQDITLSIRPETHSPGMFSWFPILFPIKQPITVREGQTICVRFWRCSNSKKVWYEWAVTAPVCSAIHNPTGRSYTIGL
Sequence (Q9BQA1 whole entry partner, species assumed): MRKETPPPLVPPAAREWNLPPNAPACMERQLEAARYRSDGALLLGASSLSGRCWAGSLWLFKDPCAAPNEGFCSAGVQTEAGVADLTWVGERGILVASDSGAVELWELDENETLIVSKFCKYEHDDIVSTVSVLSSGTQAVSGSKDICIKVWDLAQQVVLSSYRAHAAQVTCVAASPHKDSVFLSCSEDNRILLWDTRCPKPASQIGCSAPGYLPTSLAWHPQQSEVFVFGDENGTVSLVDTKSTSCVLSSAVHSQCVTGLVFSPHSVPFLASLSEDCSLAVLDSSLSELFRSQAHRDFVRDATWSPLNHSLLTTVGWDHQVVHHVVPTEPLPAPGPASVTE
Test: Biochemical assay: PRMT5/MEP50 methylation of histone H2A with 3H-SAM, filter plate scintillation
Conditions: Table 7; histone H2A substrate, 5 nM enzyme; read-out: PRMT5/MEP50 IC50
Method: Compounds were solubilized, and 3-fold diluted in 100% DMSO. […] Standard reactions were performed in a total volume of 50 μl in assay buffer, with histone H2A (5 μM final) as substrate. […] Each reaction was spotted onto filter plate (MultiScreen FB Filter Plate, Millipore), and washed 5 times with PBS buffer, Scintillation fluid was added to the filter plate and read in a scintillation counter. […]
measured.quantity: pIC50
Please treat pIC50 as minus the base-10 logarithm of the molar concentration.

pIC50 lookup needed for CCO/N=c1\nc[nH]c2c1ccn2[C@@H]1OC([C@](C)(O)c2ccc(Cl)cc2)[C@@H](O)[C@H]1O (stereo partly shown) , thanks. 7.54
